Molecular target: lac repressor (lacR) (Escherichia coli)
Sequence (P03023 whole entry): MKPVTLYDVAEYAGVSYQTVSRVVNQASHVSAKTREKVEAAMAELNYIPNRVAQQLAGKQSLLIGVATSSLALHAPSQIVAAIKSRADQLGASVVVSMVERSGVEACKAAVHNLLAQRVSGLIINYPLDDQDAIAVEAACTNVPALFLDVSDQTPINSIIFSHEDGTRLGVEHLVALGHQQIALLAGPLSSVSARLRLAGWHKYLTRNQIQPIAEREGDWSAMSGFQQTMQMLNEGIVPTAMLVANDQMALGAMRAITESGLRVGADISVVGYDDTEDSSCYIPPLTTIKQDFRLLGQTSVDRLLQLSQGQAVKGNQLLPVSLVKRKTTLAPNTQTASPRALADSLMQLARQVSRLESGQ
Experiment: Sensing a lactose analog (IPTG) using DNA biosensors: IPTG-dependent loss of lacR-assembled full DNA site, detected by single-molecule fluorescence (protein-dependent DNA coincidence)
Settings: FIG. 16; IPTG interaction with lacR (tetrameric bacterial repressor); fraction of bursts with intermediate stoichiometry vs IPTG concentration
pKd: −log10 of the molar value.
Metric: pKd

[[record]]
chemical_structure = "CC(C)S[C@@H]1O[C@H](CO)[C@H](O)[C@H](O)[C@H]1O"
measured_on = "lac repressor (lacR) (Escherichia coli)"
test_result = "5.70 to 6.00"

